B1: Homeobox protein cut-like 2, residues 895 to 963; numbered along this chain, O14529 (parent)
chain: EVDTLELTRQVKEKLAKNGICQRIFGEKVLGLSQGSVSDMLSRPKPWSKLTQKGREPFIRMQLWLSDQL

Variants of: B1
Test: abundance fitness (aPCA) (normalised: wild type 0, dead -1); higher = more abundant; growth selection in yeast, the domain comes from the species named
Conditions: Homo sapiens
Decide using abundance fitness: a value greater than or equal to -0.3 is 1.0, a smaller one is 0.0.

SEQUENCE VARIANT | LABEL CLASS
D67P | 1.0

Prompt line: Is abundance fitness for F58Q at or above -0.3?
Response line: 0.0

Prompt line: Consider next the variant D67N in the same way.
Response line: 1.0

src = the Human Domainome abundance scans (Beltran et al. 2025)
